The measured values listed here are drawn from ChEMBL document CHEMBL1134476.

molecular target: Sodium-dependent dopamine transporter (Rattus norvegicus, UniProt P23977); assay: Ability to inhibit high affinity uptake of DA into the nerve endings of rat synaptosomes using [3H]DA as a radioligand; format: subcellular, Brain
Sequence (P23977 whole entry): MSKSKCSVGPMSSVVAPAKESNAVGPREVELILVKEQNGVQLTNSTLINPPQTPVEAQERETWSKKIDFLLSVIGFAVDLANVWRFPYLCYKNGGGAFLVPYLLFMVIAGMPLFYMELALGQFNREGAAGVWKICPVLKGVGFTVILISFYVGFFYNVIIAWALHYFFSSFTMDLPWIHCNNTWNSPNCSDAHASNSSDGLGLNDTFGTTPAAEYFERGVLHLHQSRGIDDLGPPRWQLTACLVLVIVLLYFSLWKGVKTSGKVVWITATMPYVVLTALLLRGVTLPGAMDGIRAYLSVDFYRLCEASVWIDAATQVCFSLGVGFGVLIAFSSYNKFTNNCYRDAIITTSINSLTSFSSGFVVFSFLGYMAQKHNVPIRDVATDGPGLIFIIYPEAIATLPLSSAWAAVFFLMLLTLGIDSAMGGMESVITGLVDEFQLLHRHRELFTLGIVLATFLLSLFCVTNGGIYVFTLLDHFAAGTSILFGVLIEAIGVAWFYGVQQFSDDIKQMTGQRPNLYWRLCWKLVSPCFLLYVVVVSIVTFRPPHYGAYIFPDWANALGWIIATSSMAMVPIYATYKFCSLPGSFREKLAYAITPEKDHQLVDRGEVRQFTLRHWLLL
ATTRIBUTE_MEASURED: pKi
Scale explanation: pKi corresponds to minus log10 of a concentration expressed in moles per litre.

[in] Given `CN1CC[C@@H](c2ccc(Cl)cc2)[C@H](C(=O)NCCCCCCCCNC(=O)[C@@H]2CN(C)CC[C@H]2c2ccc(Cl)cc2)C1` , respond with its pKi.
[out] 5.50

====

target: Sodium-dependent dopamine transporter (Rattus norvegicus); experiment: Displacement of [3H]mazindol binding to dopamine transporter (DAT) in rat synaptosomes; type: subcellular, Brain
Some compounds, each annotated with its measured Ki.
Write the answer as a number in µM, unit excluded.

Look over these answered cases.
COC(=O)[C@H]1CN(C)CC[C@@H]1c1ccc(Cl)cc1 0.248
CN1CC[C@@H](c2ccc(Cl)cc2)[C@H](C(=O)NCCCCCNC(=O)[C@@H]2CN(C)CC[C@H]2c2ccc(Cl)cc2)C1 1.44
CN1CC[C@H](c2ccc(Cl)cc2)[C@@H](C(=O)OCCCOC(=O)[C@H]2CN(C)CC[C@@H]2c2ccc(Cl)cc2)C1 0.068

We now examine a further compound.
[in] // fetch Ki for `CN1CC[C@H](c2ccc(Cl)cc2)[C@@H](C(=O)NCCCCCNC(=O)c2ccccc2)C1` ; system: Sodium-dependent dopamine transporter (Rattus norvegicus)
[out] 0.409

====

Recorded measurements of log10 Ki, one per entry
target: UniProtKB P23977; assay: Inhibition of high affinity DA uptake into rat synaptosomes using [3H]DA; assay type: subcellular, Brain
# log10 transformed; quantity=Ki; unit=nM

CN1CC[C@@H](c2ccc(Cl)cc2)[C@H](C(=O)NCCCNC(=O)[C@@H]2CN(C)CC[C@H]2c2ccc(Cl)cc2)C1 3.71
CN1CC[C@H](c2ccc(Cl)cc2)[C@@H](C(=O)NCCCCCNC(=O)[C@H]2CN(C)CC[C@@H]2c2ccc(Cl)cc2)C1 1.59
CN1CC[C@H](c2ccc(Cl)cc2)[C@@H](C(=O)NCCCCCCCCNC(=O)[C@H]2CN(C)CC[C@@H]2c2ccc(Cl)cc2)C1 2.53
CN1CC[C@H](c2ccc(Cl)cc2)[C@@H](C(=O)NCCCNC(=O)[C@H]2CN(C)CC[C@@H]2c2ccc(Cl)cc2)C1 1.15
CN1CC[C@H](c2ccc(Cl)cc2)[C@@H](C(=O)NCCCCCNC(=O)c2ccccc2)C1 2.67

[in] In one line, give reported log10 Ki of the entry `COC(=O)[C@H]1CN(C)CC[C@@H]1c1ccc(Cl)cc1` .
[out] 2.36

[in] Indicate its recorded log10 Ki; the molecule in question is `COC(=O)[C@@H]1CN(C)CC[C@H]1c1ccc(Cl)cc1`
[out] 3.46

====

biological target: Sodium-dependent serotonin transporter (Rattus norvegicus); assay: Inhibition of high affinity serotonin uptake into rat synaptosomes using [3H]5-HT
Sequence (P31652 whole entry): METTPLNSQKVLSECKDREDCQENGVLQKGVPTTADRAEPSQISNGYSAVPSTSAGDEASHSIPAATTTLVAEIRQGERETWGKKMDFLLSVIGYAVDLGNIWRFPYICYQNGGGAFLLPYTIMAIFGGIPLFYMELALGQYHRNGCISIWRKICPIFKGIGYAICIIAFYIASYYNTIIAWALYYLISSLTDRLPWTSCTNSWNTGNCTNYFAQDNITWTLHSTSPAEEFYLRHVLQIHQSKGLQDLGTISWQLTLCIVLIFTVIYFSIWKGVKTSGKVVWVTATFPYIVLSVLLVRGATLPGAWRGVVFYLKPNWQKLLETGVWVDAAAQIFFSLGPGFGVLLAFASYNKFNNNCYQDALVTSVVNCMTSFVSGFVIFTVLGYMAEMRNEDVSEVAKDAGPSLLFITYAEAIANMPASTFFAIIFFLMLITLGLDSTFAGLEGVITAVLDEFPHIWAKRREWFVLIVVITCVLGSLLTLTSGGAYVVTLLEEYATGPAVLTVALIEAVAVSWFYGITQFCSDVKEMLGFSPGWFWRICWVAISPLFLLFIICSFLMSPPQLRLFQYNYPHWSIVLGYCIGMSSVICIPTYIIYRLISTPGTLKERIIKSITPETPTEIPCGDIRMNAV
Here, each record is paired with measured pKi data.
Entry type: numeric. Quantity: pKi, the -log10 of concentration in molar units.

COC(=O)[C@H]1CN(C)CC[C@@H]1c1ccc(Cl)cc1 5.23
CN1CC[C@H](c2ccc(Cl)cc2)[C@@H](C(=O)NCCCCCCCCNC(=O)[C@H]2CN(C)CC[C@@H]2c2ccc(Cl)cc2)C1 7.25
CN1CC[C@@H](c2ccc(Cl)cc2)[C@H](C(=O)NCCCNC(=O)[C@@H]2CN(C)CC[C@H]2c2ccc(Cl)cc2)C1 6.47
CN1CC[C@H](c2ccc(Cl)cc2)[C@@H](C(=O)NCCCCCCCNC(=O)[C@H]2CN(C)CC[C@@H]2c2ccc(Cl)cc2)C1 7.40
CN1CC[C@H](c2ccc(Cl)cc2)[C@@H](C(=O)NCCCCCNC(=O)/C=C/c2ccc(Cl)cc2)C1 6.88

[in] Give the reported value of pKi for this record: `CN1CC[C@H](c2ccc(Cl)cc2)[C@@H](C(=O)OCCCCCCCCOC(=O)[C@H]2CN(C)CC[C@@H]2c2ccc(Cl)cc2)C1`
[out] 6.76

[in] Return pKi (reported value) for this compound: `CN1CC[C@H](c2ccc(Cl)cc2)[C@@H](C(=O)NCCCCCCNC(=O)[C@H]2CN(C)CC[C@@H]2c2ccc(Cl)cc2)C1`
[out] 7.22
